Provenance of the data: ChEMBL document CHEMBL3860034

# target of assay: Sortase A (Staphylococcus aureus, UniProt Q9S446)
# Sequence (Q9S446 whole entry): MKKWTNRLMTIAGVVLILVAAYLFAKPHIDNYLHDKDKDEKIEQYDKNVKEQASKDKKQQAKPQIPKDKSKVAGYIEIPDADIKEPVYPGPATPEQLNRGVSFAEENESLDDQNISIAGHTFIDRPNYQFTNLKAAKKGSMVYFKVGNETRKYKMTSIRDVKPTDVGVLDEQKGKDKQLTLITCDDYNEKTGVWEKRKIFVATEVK
*1 amine or outer side, *2 acyl side, *3 side chain or, on linkers, in order; H or OH if unused. Where a SMILES comes first, the peptide text is derived from it. Bridges are numbered along the chain shown (N, C = ends). TBMB = c1c(C[*:1])cc(C[*:3])cc1C[*:2]
reported endpoint: Ki (µM)
Numbers only; they are read as µM.

Answer with the recorded Ki for the compound listed here: CC(C)C[C@@H]1NC(=O)[C@H](CCC(N)=O)NC(=O)[C@@H](NC(=O)[C@H](C)N)CSCc2cc3cc(c2)CSC[C@H](NC(=O)[C@@H]2CCCN2C(=O)[C@@H]2CCCN2C(=O)[C@H](CC(C)C)NC1=O)C(=O)N1CCC[C@H]1C(=O)N[C@@H](Cc1ccccc1)C(=O)N[C@@H](CC(N)=O)C(=O)N[C@H](C(=O)NCC(N)=O)CSC3 (H-ACQLLPPCPFNCG-NH2; linker 2-8-12 via TBMB) 19.3

###

# experiment description: Inhibition of recombinant Staphylococcus aureus SrtA N24 deletion mutant by using abz-LPATG-dnp as substrate
reported endpoint: pIC50
Remember, pIC50 is on a log scale: it is -log10 of the molar concentration.

Read the entry "O=S(=O)(O)c1cccc(-c2nn3c(-c4ccncc4)nnc3s2)c1" and write its reported pIC50. 5.03

###

# target of assay: Sortase A (Staphylococcus aureus)
# Sequence (Q9S446 whole entry): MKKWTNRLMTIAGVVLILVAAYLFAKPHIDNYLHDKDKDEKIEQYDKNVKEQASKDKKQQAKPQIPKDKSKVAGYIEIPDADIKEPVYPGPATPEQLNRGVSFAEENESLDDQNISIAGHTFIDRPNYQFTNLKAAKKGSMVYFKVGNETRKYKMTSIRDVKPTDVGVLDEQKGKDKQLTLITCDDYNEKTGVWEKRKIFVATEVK
pKi: −log10 of the molar value. *1 amine or outer side, *2 acyl side, *3 side chain or, on linkers, in order; H or OH if unused. Where a SMILES comes first, the peptide text is derived from it. Bridges are numbered along the chain shown (N, C = ends). TBMB = c1c(C[*:1])cc(C[*:3])cc1C[*:2]
Assign criterion met whenever pKi does not fall below 5; assign criterion not met whenever it does.

Study these solved cases before continuing.
[
  {
    "molecule": "CC(C)C[C@@H]1NC(=O)[C@H](CCC(N)=O)NC(=O)[C@H](CCCNC(=N)N)NC(=O)[C@@H](NC(=O)[C@H](C)N)CSCc2cc3cc(c2)CSC[C@H](NC(=O)[C@@H]2CCCN2C(=O)[C@@H]2CCCN2C1=O)C(=O)N[C@@H](C)C(=O)N[C@@H](CCC(=O)O)C(=O)N[C@@H](Cc1ccc(O)cc1)C(=O)N[C@@H](C(C)C)C(=O)N[C@H](C(=O)NCC(N)=O)CSC3",
    "target of assay": "Sortase A (Staphylococcus aureus)",
    "answer label": "criterion not met"
  },
  {
    "molecule": "CC[C@H](C)[C@@H]1NC(=O)CNC(=O)[C@H](CCC(N)=O)NC(=O)[C@@H](NC(=O)[C@H](C)N)CSCc2cc3cc(c2)CSC[C@H](NC(=O)[C@@H]2CCCN2C(=O)[C@@H]2CCCN2C(=O)[C@H](CC(C)C)NC1=O)C(=O)NCC(=O)N[C@@H](CCCNC(=N)N)C(=O)NCC(=O)NCC(=O)NCC(=O)NCC(=O)N[C@H](C(=O)NCC(N)=O)CSC3 (H-ACQGILPPCGRGGGGCG-NH2; linker 2-9-16 via TBMB)",
    "target of assay": "Sortase A (Staphylococcus aureus)",
    "answer label": "criterion not met"
  },
  {
    "molecule": "CC(C)C[C@@H]1NC(=O)[C@H]([C@@H](C)O)NC(=O)[C@@H](NC(=O)[C@H](C)N)CSCc2cc3cc(c2)CSC[C@H](NC(=O)[C@@H]2CCCN2C(=O)[C@@H]2CCCN2C(=O)[C@H](CC(C)C)NC1=O)C(=O)N[C@@H]([C@@H](C)O)C(=O)N1CCC[C@H]1C(=O)N[C@@H](CC(=O)O)C(=O)N[C@@H](CCC(N)=O)C(=O)N[C@H](C(=O)NCC(N)=O)CSC3 (H-ACTLLPPCTPDQCG-NH2; linker 2-8-13 via TBMB)",
    "target of assay": "Sortase A (Staphylococcus aureus)",
    "answer label": "criterion not met"
  },
  {
    "molecule": "CC[C@H](C)[C@@H]1NC(=O)[C@H](C)NC(=O)[C@@H](NC(=O)[C@H](C)N)CSCc2cc3cc(c2)CSC[C@H](NC(=O)[C@@H]2CCCN2C(=O)[C@@H]2CCCN2C(=O)[C@H](CC(C)C)NC1=O)C(=O)N[C@@H](CCC(N)=O)C(=O)N1CCC[C@H]1C(=O)N[C@@H](CCCNC(=N)N)C(=O)N[C@H](C(=O)NCC(N)=O)CSC3",
    "target of assay": "Sortase A (Staphylococcus aureus)",
    "answer label": "criterion not met"
  },
  {
    "molecule": "CC[C@H](C)[C@@H]1NC(=O)CNC(=O)[C@H](CCC(N)=O)NC(=O)[C@@H](NC(=O)[C@H](C)N)CSCc2cc3cc(c2)CSC[C@H](NC(=O)[C@@H]2CCCN2C(=O)[C@@H]2CCCN2C(=O)[C@H](CC(C)C)NC1=O)C(=O)NCC(=O)N[C@@H](CCCNC(=N)N)C(=O)NCC(=O)NCC(=O)NCC(=O)N[C@H](C(=O)NCC(N)=O)CSC3 (H-ACQGILPPCGRGGGCG-NH2; linker 2-9-15 via TBMB)",
    "target of assay": "Sortase A (Staphylococcus aureus)",
    "answer label": "criterion not met"
  }
]

Textbook exercise: given the entry CC(C)C[C@@H]1NC(=O)[C@H](CO)NC(=O)[C@@H]2CSCc3cc(cc(c3)CSC[C@H](NC(=O)[C@H](C)N)C(=O)N3CCC[C@H]3C(=O)N[C@@H](CC(C)C)C(=O)N[C@@H](CC(C)C)C(=O)N3CCC[C@H]3C(=O)N3CCC[C@H]3C(=O)N2)CSC[C@@H](C(=O)NCC(=O)O)NC(=O)[C@H](CC(=O)O)NC1=O (H-ACPLLPPCSLDCG-OH; linker 2-8-12 via TBMB) , state whether its pKi is greater than or equal to 5. criterion met

Could you please find out whether CC(C)C[C@@H]1NC(=O)[C@H](CCC(N)=O)NC(=O)[C@@H]2CCCN2C(=O)[C@@H]2CSCc3cc(cc(c3)CSC[C@@H](C(=O)NCC(=O)O)NC(=O)[C@@H]3CCCN3C(=O)[C@@H]3CCCN3C1=O)CSC[C@H](NC(=O)[C@H](C)N)C(=O)N[C@@H](Cc1c[nH]cn1)C(=O)N[C@@H](CO)C(=O)N[C@@H](CCCNC(=N)N)C(=O)N2 (H-ACHSRCPQLPPCG-OH; linker 2-6-12 via TBMB) has pKi that meets 5 or exceeds it? criterion met
